Consider the following MIC values measured on Staphylococcus aureus ATCC 12600.
Dear colleague, please return just the value in µg/mL, with no unit written.

# MIC of COC(=O)N/C=C/CCC(C)c1cc(O)c(C(=O)C(C)=Cc2ccc(OCCC(F)(F)F)cc2)c(=O)o1 (mixture of isomers) = 1

Just so you know, measured MIC for COC(=O)N/C=C/CCC(C)c1cc(O)c(C(=O)C(C)=Cc2ccc(CC3CC3)s2)c(=O)o1 (mixture of isomers) came out at 1

COC(=O)N/C=C/CCC(C)c1cc(O)c(C(=O)C(C)=Cc2cnc(CCC(C)C)s2)c(=O)o1 (mixture of isomers) yielded MIC of 1

====

For each record, write down the corresponding MIC.

Short answer on Staphylococcus aureus ATCC 12600 for COC(=O)N/C=C/CCC(C)c1cc(O)c(C(=O)C(C)=Cc2ccc(OC)s2)c(=O)o1 (mixture of isomers) , MIC: > 40 µg/mL

Observed MIC on Staphylococcus aureus ATCC 12600, entry COC(=O)N/C=C/CCC(C)c1cc(O)c(C(=O)C(C)=Cc2ccc(CCCO)s2)c(=O)o1 (mixture of isomers) , equals > 40 µg/mL

Observed MIC, Staphylococcus aureus ATCC 12600, COC(=O)N/C=C/CCC(C)c1cc(O)c(C(=O)C(C)=Cc2cc3cc(OC(C)C)ccc3n2C)c(=O)o1 (mixture of isomers) : > 40 µg/mL

====

Provide the recorded pIC50 for the entries that follow.
target under test: M. tuberculosis RNA polymerase core enzyme, M. tuberculosis σ^A (Mycobacterium tuberculosis, UniProt P9WGY7+P9WGY9)
assay protocol: Fluorescence-detected RNA polymerase assay, M. tuberculosis RNA polymerase
Format: biochemical
experimental conditions: read-out: IC50 M. tuberculosis RNAP
The meaning of pIC50 here: minus log10 of the concentration in molar units.

Item: CCCCc1ccc2sc(C=C(C)C(=O)c3c(O)cc(C(C)CC/C=C/NC(=O)OC)oc3=O)cc2c1 (mixture of isomers) | pIC50: 6.00

Kindly note the recorded pIC50 for CCCCCCc1csc(C=C(C)C(=O)c2c(O)cc(C(C)CC/C=C/NC(=O)OC)oc2=O)c1C (mixture of isomers) , which is 6.00

Reported pIC50 ( CCCCCCc1coc(C=C(C)C(=O)c2c(O)cc(C(C)CC/C=C/NC(=O)OC)oc2=O)c1 (mixture of isomers) ) = 6.40

For CCCCCCc1ccc(C=C(C)C(=O)c2c(O)cc(C(C)CC/C=C/NC(=O)OC)oc2=O)o1 (mixture of isomers) the compound record lists pIC50 as 6.05

// sample CCCCCCc1csc(C=C(C)C(=O)c2c(O)cc(C(C)CC/C=C/NC(=O)OC)oc2=O)c1 (mixture of isomers) , its pIC50 was 6.22

====

Please respond with reported IC50 for every item in the list.
target under test: S. aureus RNA polymerase core enzyme, S. aureus σ^A (Staphylococcus aureus, UniProt P47768+Q2G0N5)
Sequence (Q2G0N5 whole entry): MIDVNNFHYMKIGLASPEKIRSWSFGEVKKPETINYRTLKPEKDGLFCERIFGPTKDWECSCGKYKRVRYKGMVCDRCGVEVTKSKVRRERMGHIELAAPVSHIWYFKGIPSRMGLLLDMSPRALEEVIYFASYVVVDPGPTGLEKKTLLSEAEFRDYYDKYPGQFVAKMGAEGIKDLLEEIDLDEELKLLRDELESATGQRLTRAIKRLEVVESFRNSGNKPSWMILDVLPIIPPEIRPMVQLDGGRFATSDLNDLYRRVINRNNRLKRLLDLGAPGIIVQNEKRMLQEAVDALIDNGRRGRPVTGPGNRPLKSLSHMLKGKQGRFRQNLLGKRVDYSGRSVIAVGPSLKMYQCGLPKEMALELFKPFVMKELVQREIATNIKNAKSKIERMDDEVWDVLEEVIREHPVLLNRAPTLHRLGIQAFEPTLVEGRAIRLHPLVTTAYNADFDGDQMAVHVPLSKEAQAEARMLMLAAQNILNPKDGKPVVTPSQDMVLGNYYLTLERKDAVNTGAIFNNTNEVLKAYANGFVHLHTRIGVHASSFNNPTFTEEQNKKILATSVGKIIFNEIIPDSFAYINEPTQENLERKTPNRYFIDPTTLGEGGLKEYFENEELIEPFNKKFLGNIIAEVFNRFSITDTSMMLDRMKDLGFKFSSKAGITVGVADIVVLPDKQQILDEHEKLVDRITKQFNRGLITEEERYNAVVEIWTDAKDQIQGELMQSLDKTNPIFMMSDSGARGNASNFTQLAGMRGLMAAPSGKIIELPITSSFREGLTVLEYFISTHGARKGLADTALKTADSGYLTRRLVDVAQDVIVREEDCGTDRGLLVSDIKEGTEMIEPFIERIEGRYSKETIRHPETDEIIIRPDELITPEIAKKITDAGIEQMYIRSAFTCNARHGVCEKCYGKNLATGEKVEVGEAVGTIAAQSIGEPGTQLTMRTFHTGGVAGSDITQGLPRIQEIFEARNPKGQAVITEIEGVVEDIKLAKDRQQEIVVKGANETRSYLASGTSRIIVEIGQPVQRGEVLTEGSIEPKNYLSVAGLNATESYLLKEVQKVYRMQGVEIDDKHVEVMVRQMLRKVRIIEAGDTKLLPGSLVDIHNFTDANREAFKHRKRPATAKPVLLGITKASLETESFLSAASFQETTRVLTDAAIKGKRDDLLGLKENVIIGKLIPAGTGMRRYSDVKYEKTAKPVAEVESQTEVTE
Sequence (Q2FW32 whole entry, further chain): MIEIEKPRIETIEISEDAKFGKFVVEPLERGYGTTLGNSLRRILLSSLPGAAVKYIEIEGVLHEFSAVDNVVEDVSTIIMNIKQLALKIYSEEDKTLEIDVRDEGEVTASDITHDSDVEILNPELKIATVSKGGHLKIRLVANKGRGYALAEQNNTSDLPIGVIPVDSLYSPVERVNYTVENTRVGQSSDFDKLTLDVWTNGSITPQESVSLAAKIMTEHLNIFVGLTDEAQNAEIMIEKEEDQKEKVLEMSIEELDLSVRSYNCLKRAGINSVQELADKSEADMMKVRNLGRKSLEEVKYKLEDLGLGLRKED
Sequence (P0A0J0 whole entry, further chain): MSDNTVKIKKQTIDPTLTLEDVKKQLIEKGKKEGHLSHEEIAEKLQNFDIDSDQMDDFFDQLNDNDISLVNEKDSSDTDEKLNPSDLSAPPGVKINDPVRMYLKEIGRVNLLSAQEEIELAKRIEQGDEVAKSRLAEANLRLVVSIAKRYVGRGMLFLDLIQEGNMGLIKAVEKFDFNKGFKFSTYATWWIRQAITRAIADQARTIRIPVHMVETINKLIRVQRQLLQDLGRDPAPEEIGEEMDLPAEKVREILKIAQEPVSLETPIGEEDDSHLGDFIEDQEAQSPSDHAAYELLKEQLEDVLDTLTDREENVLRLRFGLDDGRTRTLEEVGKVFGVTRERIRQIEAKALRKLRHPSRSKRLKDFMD
Sequence (P47768 whole entry): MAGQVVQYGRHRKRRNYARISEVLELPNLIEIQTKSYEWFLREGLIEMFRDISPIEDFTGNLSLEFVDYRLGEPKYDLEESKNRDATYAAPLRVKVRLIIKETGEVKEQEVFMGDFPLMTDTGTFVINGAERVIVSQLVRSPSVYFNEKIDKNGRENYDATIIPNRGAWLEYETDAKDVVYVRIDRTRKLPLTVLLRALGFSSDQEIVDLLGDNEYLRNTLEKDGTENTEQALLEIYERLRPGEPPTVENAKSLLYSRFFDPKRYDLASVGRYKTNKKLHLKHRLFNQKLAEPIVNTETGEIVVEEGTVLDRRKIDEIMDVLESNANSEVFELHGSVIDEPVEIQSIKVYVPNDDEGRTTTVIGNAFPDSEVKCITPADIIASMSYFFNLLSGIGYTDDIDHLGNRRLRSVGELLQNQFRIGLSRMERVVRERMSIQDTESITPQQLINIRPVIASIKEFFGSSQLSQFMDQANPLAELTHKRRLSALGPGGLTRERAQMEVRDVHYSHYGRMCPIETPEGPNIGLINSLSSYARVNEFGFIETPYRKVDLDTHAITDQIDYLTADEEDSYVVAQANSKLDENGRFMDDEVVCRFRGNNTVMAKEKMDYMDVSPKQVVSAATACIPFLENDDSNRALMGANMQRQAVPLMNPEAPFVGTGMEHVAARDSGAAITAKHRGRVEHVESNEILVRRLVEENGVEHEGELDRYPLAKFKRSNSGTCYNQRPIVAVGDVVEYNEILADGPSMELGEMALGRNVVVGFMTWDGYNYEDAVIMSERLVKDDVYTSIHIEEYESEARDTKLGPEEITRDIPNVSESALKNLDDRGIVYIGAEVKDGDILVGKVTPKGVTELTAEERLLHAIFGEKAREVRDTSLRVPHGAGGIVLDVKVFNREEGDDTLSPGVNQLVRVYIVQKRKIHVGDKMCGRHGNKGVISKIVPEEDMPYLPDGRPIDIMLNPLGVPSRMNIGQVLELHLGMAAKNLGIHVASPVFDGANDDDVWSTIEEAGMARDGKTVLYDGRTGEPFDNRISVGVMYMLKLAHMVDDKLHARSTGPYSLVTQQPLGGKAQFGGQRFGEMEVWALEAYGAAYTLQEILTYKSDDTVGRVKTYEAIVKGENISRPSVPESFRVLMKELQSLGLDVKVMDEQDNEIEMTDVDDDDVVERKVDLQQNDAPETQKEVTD
assay protocol: Fluorescence-detected RNA polymerase assay, S. aureus RNA polymerase
experimental conditions: read-out: IC50 S. aureus RNAP
Hey, just the number and the unit after it is fine.

The recorded IC50 for CCCCCCc1csc(C=C(C)C(=O)c2c(O)cc(C(C)CC/C=C/NC(=O)OC)oc2=O)c1C (mixture of isomers) is 100 nM

For reference, reported IC50 for CCCCCCc1csc(C=C(C)C(=O)c2c(O)cc(C(C)CC/C=C/NC(=O)OC)oc2=O)c1 (mixture of isomers) stands at 70 nM

Lab book: IC50 of CCCCc1ccc2cc(C=C(C)C(=O)c3c(O)cc(C(C)CC/C=C/NC(=O)OC)oc3=O)oc2c1 (mixture of isomers) noted as 60 nM

Reported IC50 of CCCCc1ccc2oc(C=C(C)C(=O)c3c(O)cc(C(C)CC/C=C/NC(=O)OC)oc3=O)cc2c1 (mixture of isomers) : 70 nM

Notebook: C=CCCCCc1ccc(C=C(C)C(=O)c2c(O)cc(C(C)CC/C=C/NC(=O)OC)oc2=O)s1 (mixture of isomers) , IC50 read as 90 nM

IC50 measured on CCCCc1ccc2cc(C=C(C)C(=O)c3c(O)cc(C(C)CC/C=C/NC(=O)OC)oc3=O)sc2c1 (mixture of isomers) = 300 nM
